# system.tested: T1, B7-H3 on tumour cells (MDA-MB-468 cells, N87 cells) (UniProt Q5ZPR3 29-534, limits assumed)
# T1 construct: whole, on cells
# T1 sequence (looked up): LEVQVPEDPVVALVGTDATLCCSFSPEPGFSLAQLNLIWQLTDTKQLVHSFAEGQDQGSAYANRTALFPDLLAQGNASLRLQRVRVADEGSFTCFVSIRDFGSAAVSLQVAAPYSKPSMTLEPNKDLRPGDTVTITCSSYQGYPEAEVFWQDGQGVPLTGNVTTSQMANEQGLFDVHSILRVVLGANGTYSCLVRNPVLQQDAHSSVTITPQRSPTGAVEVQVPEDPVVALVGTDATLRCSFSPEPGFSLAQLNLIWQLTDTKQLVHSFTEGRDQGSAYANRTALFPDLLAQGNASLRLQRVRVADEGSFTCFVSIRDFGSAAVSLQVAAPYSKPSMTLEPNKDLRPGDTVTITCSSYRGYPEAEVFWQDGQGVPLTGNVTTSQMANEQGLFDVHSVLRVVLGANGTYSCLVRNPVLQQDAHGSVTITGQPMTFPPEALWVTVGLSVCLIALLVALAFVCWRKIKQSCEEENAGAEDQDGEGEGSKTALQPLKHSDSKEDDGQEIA
# method.summary: flow cytometry on MDA-MB-468 cells, PE goat anti-human IgG Fc secondary; blank 0.9% in the positive gate
# Description: MDA-MB-468 cells in logarithmic phase were collected and centrifuged at 1500 rpm for 5 min, and the supernatant was removed. The cells were resuspended in 1×PBS and centrifuged at 1500 rpm for 5 min, and the supernatant was removed, and then the procedure was repeated once. […]
Please go through the items and note down their % of cells in positive gate V1-R at 1.23 nM.
Hi! Could you send only the number? It should be in %, unit omitted.

Request: What value of measured % of cells in positive gate V1-R at 1.23 nM is listed for antibody V2 (antibody, human IgG1, kappa, V domains shown, Humanized from chimeric antibody M1; expressed in HEK293F cells; also called humanized antibody V2) VH: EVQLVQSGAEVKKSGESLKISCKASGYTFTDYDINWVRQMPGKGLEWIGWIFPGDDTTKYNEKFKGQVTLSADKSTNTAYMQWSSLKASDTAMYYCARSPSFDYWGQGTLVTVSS VL: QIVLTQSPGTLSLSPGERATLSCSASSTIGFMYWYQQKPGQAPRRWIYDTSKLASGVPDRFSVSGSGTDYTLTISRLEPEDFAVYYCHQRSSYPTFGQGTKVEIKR ?
Result: 1.3

Request: Thanks! And control antibody M30-H1-L4 (antibody, human IgG1, kappa, V domains shown, Control anti-B7-H3 antibody; also called HIL4) VH: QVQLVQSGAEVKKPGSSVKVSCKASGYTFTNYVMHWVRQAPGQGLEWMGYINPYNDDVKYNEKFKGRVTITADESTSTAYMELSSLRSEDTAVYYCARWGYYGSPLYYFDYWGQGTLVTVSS VL: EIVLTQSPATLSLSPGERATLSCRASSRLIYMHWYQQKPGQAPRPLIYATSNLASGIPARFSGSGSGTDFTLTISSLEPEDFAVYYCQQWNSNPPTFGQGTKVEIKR ?
Result: 4

Request: Thanks! And antibody V1 (antibody, human IgG1, kappa, V domains shown, Humanized from chimeric antibody M1; expressed in HEK293F cells; also called humanized antibody V1) VH: EVQLVQSGAEVKKSGESLKISCKASGYTFTDYDINWVRQMPGKGLEWMGWIFPGDDTTKYNEKFKGQVTISADKSTNTAYLQWSSLKASDTAMYYCARSPSFDYWGQGTLVTVSS VL: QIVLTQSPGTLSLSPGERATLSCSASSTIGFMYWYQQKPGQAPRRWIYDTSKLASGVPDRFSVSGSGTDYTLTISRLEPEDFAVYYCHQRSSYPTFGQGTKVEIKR ?
Result: 8.6
